# System: pain induced by acetyl choline
# assayText: Analgesic activity with respect to the pain induced by acetyl choline (contortions), method of Collier
# Format: in vivo, Male mice of the Swiss strain
# assaySetup: Mus musculus, po, 2 h; 120 minutes after administration; dose which reduces the number of contortions to half the initial value; read-out: ED-50 120 min.
readoutType: ED50 (mg/kg)
Hi! Could you send only the number? It should be in mg/kg, unit omitted.

{"compound": "CN1c2c(oc(=S)n(-c3ccccn3)c2=O)-c2ccccc2S1(=O)=O [Example 3]", "ED50 (mg/kg)": 25}

Please find the next compound below.
Problem: What does the data say about its ED50? Entry: Cc1cc(-n2c(=O)oc3c(c2=O)N(C)S(=O)(=O)c2ccccc2-3)no1 [Example 4]
Solution: 154
